assay: Particle size of nucleic acid lipid particles (Luc2-siRNA); type: physicochemical; conditions: compound/DSPC/cholesterol/DMG-PEG2000 50/10/38.5/1.5
Reported Particle size (nm) values are given for each entry in this list.

Molecule	Particle size (nm)
CCCCCCCCC(CCCCCC)COC(=O)CCCCCCCCC(CCCCCC)OC(=O)OCCN(CCOC(=O)CCCCC)CCN(CC)CC (stereo not drawn) [Example 100]	76.7
CCCCC/C=C\C/C=C\CCCCCCCCN(CCCCCCCC/C=C\C/C=C\CCCCC)C(=O)OC1CCN(CCN(C)C)CC1 [Example 3]	83.6
CCCCC/C=C\C/C=C\CCCCCCCCC(CCCCCCCC/C=C\C/C=C\CCCCC)OC(=O)OCCN(CCCCC)CCN(C)C [Example 40]	73.7
CCCCC/C=C\C/C=C\CCCCCCCCC(CCCCCCCC/C=C\C/C=C\CCCCC)OC(=O)CCCN(C)C [Reference Example 1, reference compound]	69.6
CCCCC/C=C\C/C=C\CCCCCCCC(CCCCCCCCCC)OC(=O)OCCN(C)CCN(C)C (stereo not drawn) [Example 29]	70.1
CCCCCCCCC(=O)OCCN(CCOC(=O)OC(CCCCCC)CCCCCCCCC(=O)OCC(CCCCC)CCCCC)CCN(CC)CC (stereo not drawn) [Example 130]	64.9
CCCCC/C=C\C/C=C\CCCCCCCCC(CCCCCCCC/C=C\C/C=C\CCCCC)OC(=O)OCCN(CCN(C)CCC)C(C)C [Example 63]	65.8
CCCCC/C=C\C/C=C\CCCCCCCCC(CCCCCCCC/C=C\C/C=C\CCCCC)OC(=O)OCCN(C)CCN(C)CCO [Example 27]	75.2
CCCCCCCCC(CCCCCC)COC(=O)CCCCCCCCC(CCCCC)OC(=O)OCCN(CCO)CCN(CC)CC (stereo not drawn) [Example 131]	291

These entries and their values trace back to patent US12370143B2.
